test: in vivo; conditions: rat, in vivo, po, 20 mg/kg, Tmax, LC rats; 20 mg/kg oral
QUANTITY: Tmax (min)
All answers are understood in min, so give the number only.

What Tmax value was documented for this compound, CC1CCN(C(=O)CC#N)CC1N(C)c1ncnc2[nH]ccc12 (stereo not shown) ?
55.7

src = paper PMC9783783
